Tested on: SN12C
EXPERIMENT: NCI tumour cell line growth inhibition, 48 h
Active and inactive are the calls of the source. No stated cut-off is given here; in the data, active = GI50 up to about 1.1 µM and inactive = higher.
Your response should consist of one outcome taken from active, inactive

Enquiry: Record request — test call for COc1cc([C@@H]2c3cc4c(cc3C(N)C3COC(=O)[C@@H]32)OCO4)cc(OC)c1O (stereo partly specified)
Return: active

Enquiry: Returns: the outcome recorded for S=C(Nc1ccccc1)N(Cc1ccccc1)c1ccccc1 in this assay.
Return: inactive

Enquiry: Returns: the outcome recorded for CCCCCCCCCCNC(=S)OC in this assay.
Return: inactive

Enquiry: Write down the call the test reported for this molecule. Item: CN1N=C2NCCNC3=NN(C)/C(=N/CC/N=C/1S2)S3
Return: inactive

Enquiry: Returns: the outcome recorded for COc1cc(O)c2c(=O)c3cccc(C)c3[nH]c2c1 in this assay.
Return: inactive

Enquiry: Which result was noted for this molecule in the test: CC(C)(C)NC(=O)C12C3C4C1C1C2C3C41I (stereo unspecified)
Return: inactive

Enquiry: # lookup: test call for N[C@@H](Cc1ccccc1)C(=O)N1CCC[C@@H]1P(=O)(Oc1ccccc1)Oc1ccccc1
Return: inactive

Enquiry: Recorded test call requested for CCCCCC/C=C\CCCCCCCCCc1c(O)c(OC)cc(O)c1CN(C)C
Return: inactive

Enquiry: Which result was noted for this molecule in the test: CNCCN[C@@H]1c2cc3c(cc2[C@@H](c2cc(OC)c(O)c(OC)c2)[C@H]2C(=O)OC[C@@H]21)OCO3
Return: active

Enquiry: I'd appreciate the recorded outcome for CN(C)CCN1N=Nc2cccc3cccc1c23 from this test.
Return: inactive

Enquiry: Called result for COc1cc2c(cc1OC)C1C[C@]3(CCN1CC2)C(=O)N(c1ccccc1)C(=O)N3C(C)=O (stereo partly specified)
Return: inactive

---

System: K562
EXPERIMENT: NCI tumour cell line growth inhibition, 48 h
Calls of active or inactive are those of the source. Cut-off read from the data, not from the text of the source: active = GI50 up to about 1.1 µM and inactive = higher.
Your reply should match one of these outcome classes. 1.0 for active, 0.0 for inactive

{"COMPOUND": "C=C1C(=O)O[C@H]2C3C(=C(C)CC[C@@H]12)C(=O)[C@@H]1OC31C (stereo not given in full)", "LABEL VALUE": 1.0}
{"COMPOUND": "CN(CCCCN)c1ccc2c(=O)[nH][nH]c(=O)c2c1", "LABEL VALUE": 0.0}
{"COMPOUND": "CN(O)C(=O)c1ccccc1", "LABEL VALUE": 0.0}
{"COMPOUND": "NC1=NCCC1(c1ccccc1)c1ccccn1 (stereo not given)", "LABEL VALUE": 0.0}
{"COMPOUND": "COc1ccc2c(c1)OCc1c-2oc2ccccc2c1=O", "LABEL VALUE": 0.0}
{"COMPOUND": "COC(=O)c1cc(-c2ccc(OC)c(OC)c2)oc1-c1ccc(OC)c(OC)c1", "LABEL VALUE": 0.0}
{"COMPOUND": "Cc1ccc(S(=O)(=O)NC(=O)NC(CC(=O)O)C(=O)O)cc1 (stereo not given)", "LABEL VALUE": 0.0}
{"COMPOUND": "COc1ccc([C@@H]2C[C@@H]3C(=O)OC(=O)[C@@H]3c3c2c2ccccc2n3C)cc1", "LABEL VALUE": 0.0}

Enquiry: Name the outcome recorded for O=C1C=C(C2=CC(=O)C(=O)c3ccccc32)c2ccccc2C1=O in the assay.
Return: 0.0

Enquiry: GET /call?item= Cc1[nH]c2c(C)ccc(C)c2c1CC(=O)O returns the recorded outcome of this test.
Return: 0.0

Enquiry: Field: outcome | Entry: C=C1[C@H](OCC(C)C)[C@@H](OC(=O)C(C)CC)[C@@H](O)C(C)(C)/C=C/[C@H](C)C(=O)[C@@]2(O)C[C@H](C)[C@H](O)[C@@H]2[C@H]1OC(=O)C(C)CC (stereo not given in full)
Return: 1.0

Enquiry: Any idea what this test logged for Cc1cc(C)nc(NS(=O)(=O)c2ccc(NC(=O)c3cccc4c(=O)c5ccccc5[nH]c34)cc2)n1 ?
Return: 0.0

Enquiry: Answer briefly: the call reported for O=C1c2ccccc2C(=O)N1CCCOCc1cnc(O)nc1O in this assay.
Return: 0.0

Enquiry: What is the recorded call for this compound in the test? CCN(CC)CCCNC(=O)C1COc2cc(-c3cc(=O)c4ccccc4o3)ccc2O1 (stereo not given)
Return: 0.0

Enquiry: // return assay outcome for Cc1ccc(/C=C/C(=O)CCN(C)C)cc1
Return: 0.0

Enquiry: Per the assay record, what outcome was assigned to COC(=O)c1sc2c(=O)c(C(=O)OC)c(C(=O)OC)sc2c(=O)c1C(=O)OC ?
Return: 0.0

Enquiry: Which outcome was entered for the compound N#C/C(=C\c1ccc(CP(=O)(O)O)cc1)C(N)=O in this test?
Return: 0.0

Enquiry: Which outcome was assigned to CC(C)(C)c1cc(C(C)(C)C)c(P=C(Cl)Cl)c(C(C)(C)C)c1 (stereo not given) in this test?
Return: 1.0

Enquiry: Check the results log: what was the call for O=C(O)c1ccc2nc(-c3ccccn3)c(-c3ccccn3)nc2c1 ?
Return: 0.0

Enquiry: What is the recorded call for this compound in the test? Cc1ccc(C(=O)C2=CN=C3C(=O)N(c4ccccc4)N(C)C3(C)C2=N)cc1 (stereo not given)
Return: 0.0
